testName: NCI Yeast Anticancer Drug Screen. Data for the wt2 strain (AID 169);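 further: 0% = growth of vehicle-treated yeast cultures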
conditionLabel: S. cerevisiae wt2 strain growth inhibition; at 100.0 µM; stronger effect = higher value
This is part of a sample that, as a whole, favours compounds with a hit. Of some 79,000 tested, about 15% had one in any assay.
Give measured growth inhibition for each item. Keep answers brief.
Numbers only, in %.

These recorded examples may help you get a feel for the data.
{"compound": "O=[N+]([O-])c1cccc2nc3ccccc3c(NCCC[N+]3([O-])CCCCC3)c12", "growth inhibition (%)": 96}
{"compound": "CC1(C)CC(=O)C(/C=N/c2nc(-c3ccccc3)cs2)=C(O)C1", "growth inhibition (%)": 82}
{"compound": "O=C(c1ccc([N+](=O)[O-])cc1)C1N=NCC1c1ccccc1 (stereo unspecified)", "growth inhibition (%)": 64}
{"compound": "CC(C)C(C)/C=C\\C(C)C1CCC2C3=CC=C4CC(O)CCC4(C)C3CCC21C (stereo unspecified)", "growth inhibition (%)": 14}

# batch: return growth inhibition for each of the 6 compounds below
1. CCOC1=C/C(=N\Nc2ccc([N+](=O)[O-])cc2)CCC1
2. Cc1cc(NCCCCCCCCNc2cc(C)nc3cc(N)ccc23)c2ccc(N)cc2n1
3. O=C1OC(OC/C(Br)=C(\Br)COC2OC(=O)C(Cl)=C2Cl)C(Cl)=C1Cl (stereo unspecified)
4. O=C(/C=C/c1cc(Cl)cc(Cl)c1O)c1cccc(O)c1
5. CC(C)(C)[Si](C)(C)OCC1CCC(n2cnc3c(NC(=O)c4ccccc4)ncnc32)O1 (stereo unspecified)
6. N/C(=N/N=C/c1cc(Br)cc(Br)c1O)NO

[11, 95, 10, 98, -1, 98]

# batch: return growth inhibition for each of the 3 compounds below
1. COc1ccc(C(=O)c2ccccc2C(=O)c2ccccc2OC)cc1
2. CCCCCCCCCCCC1N=C(N)NC(CCCO)=C1C(=O)OC (stereo unspecified)
3. c1ccc(-c2cnc3ccccc3c2)cc1

1. 1
2. 99
3. 98

# batch: return growth inhibition for each of the 7 compounds below
1. CNC(=O)OCc1c(COC(=O)NC)c(-c2ccc(Cl)c(Cl)c2)n2c1SCC2
2. O=C(NO)Nc1cc(Cl)cc(Cl)c1
3. CC(NCCN(C)C)C1CCC2C3CCc4cc(O)ccc4C3CCC12C (stereo unspecified)
4. COc1cc(/C=N/Nc2nnc3c4ccccc4c4ncccc4c3n2)cc(OC)c1OC
5. O=C1NC(=O)c2ccc([N+](=O)[O-])c3cccc1c23
6. COc1ccc2[nH]cc([C@@H]3C4CCC(C4)[C@H]3NCc3cccc(CN[C@H]4C5CCC(C5)[C@@H]4c4c[nH]c5ccc(OC)cc45)c3)c2c1
7. C(=Nc1ccc(-c2cc(-c3ccccc3)nc3ccc4ccccc4c23)cc1)c1ccccc1

[25, 98, 97, -4, 62, 99, 81]

Given the compound COc1nc2c(c(=O)n1C)N=C(c1ccccc1)[C@H](C(CC(=O)c1ccccc1)c1ccccc1)C(c1ccccc1)N2 (stereo partly specified) , what is its reported growth inhibition? 46

Recorded values, source PubChem BioAssay (NCI).
